FYI, the data here is from ChEMBL document CHEMBL1212775.

# procedureSummary: Cytotoxicity against human HuH7 cells by luminescence based cell viability assay
# Design: species or system Huh-7
Each item that follows carries a reported CC50.
Reply numerically in µM, unit not repeated.

Example compounds with recorded CC50:
molSmiles | CC50 (µM)
O=C(O)c1ccc(-c2ccc(-c3c4nc(c(-c5ccc(-c6ccc(C(=O)O)cc6)cc5)c5ccc([nH]5)c(-c5ccc(-c6ccc(C(=O)O)cc6)cc5)c5ccc([nH]5)c(-c5ccc(-c6ccc(C(=O)O)cc6)cc5)c5nc3C=C5)C=C4)cc2)cc1 | 32.2
O=C(O)CNC(=O)c1cc(C(=O)NCC(=O)O)cc(-c2ccc(-c3c4nc(c(-c5ccc(-c6cc(C(=O)NCC(=O)O)cc(C(=O)NCC(=O)O)c6)cc5)c5ccc([nH]5)c(-c5ccc(-c6cc(C(=O)NCC(=O)O)cc(C(=O)NCC(=O)O)c6)cc5)c5nc(c(-c6ccc(-c7cc(C(=O)NCC(=O)O)cc(C(=O)NCC(=O)O)c7)cc6)c6ccc3[nH]6)C=C5)C=C4)cc2)c1 | 12.5
COC(=O)[C@H](CC(=O)O)NC(=O)c1cc(C(=O)N[C@@H](CC(=O)O)C(=O)OC)cc(-c2ccc(-c3c4nc(c(-c5ccc(-c6cc(C(=O)N[C@@H](CC(=O)O)C(=O)OC)cc(C(=O)N[C@@H](CC(=O)O)C(=O)OC)c6)cc5)c5ccc([nH]5)c(-c5ccc(-c6cc(C(=O)N[C@@H](CC(=O)O)C(=O)OC)cc(C(=O)N[C@@H](CC(=O)O)C(=O)OC)c6)cc5)c5nc(c(-c6ccc(-c7cc(C(=O)N[C@@H](CC(=O)O)C(=O)OC)cc(C(=O)N[C@@H](CC(=O)O)C(=O)OC)c7)cc6)c6ccc3[nH]6)C=C5)C=C4)cc2)c1 | 12.5

# input for lookup
Exam item: Please look up its CC50: "O=C(O)c1cccc(-c2ccc(-c3c4nc(c(-c5ccc(-c6cccc(C(=O)O)c6)cc5)c5ccc([nH]5)c(-c5ccc(-c6cccc(C(=O)O)c6)cc5)c5nc(c(-c6ccc(-c7cccc(C(=O)O)c7)cc6)c6ccc3[nH]6)C=C5)C=C4)cc2)c1"
Marked response: 13
